Mean % WT Binding values by entry
- systemTested: human CD33 K159A (human, UniProt P20138 18-364)
- Sequence (P20138 18-364 K159A limits assumed): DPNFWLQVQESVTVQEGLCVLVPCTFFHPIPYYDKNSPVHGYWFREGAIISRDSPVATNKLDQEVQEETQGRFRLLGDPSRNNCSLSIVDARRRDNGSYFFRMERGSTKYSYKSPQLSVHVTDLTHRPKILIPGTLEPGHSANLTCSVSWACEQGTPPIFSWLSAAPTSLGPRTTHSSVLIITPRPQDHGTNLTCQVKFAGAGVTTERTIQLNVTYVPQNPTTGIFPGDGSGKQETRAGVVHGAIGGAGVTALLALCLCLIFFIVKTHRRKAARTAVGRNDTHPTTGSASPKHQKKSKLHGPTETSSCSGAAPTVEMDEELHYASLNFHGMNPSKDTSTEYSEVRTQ
- experimentNotes: flow cytometry on HEK293-T, alanine scan

binder	Mean % WT Binding / % WT binding
Refmab #4 (antibody, V domains shown, The alanine scan used IgG or Fab) VH: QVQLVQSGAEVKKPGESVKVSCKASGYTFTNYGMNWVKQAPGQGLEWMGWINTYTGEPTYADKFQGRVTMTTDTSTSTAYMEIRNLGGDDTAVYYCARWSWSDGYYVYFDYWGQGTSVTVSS VL: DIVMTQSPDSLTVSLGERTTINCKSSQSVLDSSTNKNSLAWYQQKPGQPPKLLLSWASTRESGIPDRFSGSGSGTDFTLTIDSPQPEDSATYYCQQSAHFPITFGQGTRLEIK	118
Refmab #3 (antibody, V domains shown, The alanine scan used IgG or Fab) VH: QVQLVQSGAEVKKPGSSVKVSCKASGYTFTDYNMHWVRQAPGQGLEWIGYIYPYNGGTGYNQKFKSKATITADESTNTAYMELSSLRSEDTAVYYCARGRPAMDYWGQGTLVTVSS VL: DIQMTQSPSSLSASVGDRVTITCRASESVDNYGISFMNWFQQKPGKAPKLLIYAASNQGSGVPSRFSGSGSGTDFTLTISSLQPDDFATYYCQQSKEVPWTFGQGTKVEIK	110
Refmab #1 (antibody, V domains shown, The alanine scan used IgG or Fab; also called hP67.6) VH: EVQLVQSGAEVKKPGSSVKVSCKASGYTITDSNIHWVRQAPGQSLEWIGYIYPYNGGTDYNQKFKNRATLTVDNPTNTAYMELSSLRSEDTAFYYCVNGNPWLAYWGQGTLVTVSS VL: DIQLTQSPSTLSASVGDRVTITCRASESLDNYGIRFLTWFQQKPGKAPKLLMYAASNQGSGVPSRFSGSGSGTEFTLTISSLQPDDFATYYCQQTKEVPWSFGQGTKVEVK	119
Refmab #2 (antibody, V domains shown, The alanine scan used IgG or Fab) VH: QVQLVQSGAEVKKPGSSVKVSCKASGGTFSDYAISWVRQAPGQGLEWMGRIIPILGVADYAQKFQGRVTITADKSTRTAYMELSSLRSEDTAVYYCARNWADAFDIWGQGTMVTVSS VL: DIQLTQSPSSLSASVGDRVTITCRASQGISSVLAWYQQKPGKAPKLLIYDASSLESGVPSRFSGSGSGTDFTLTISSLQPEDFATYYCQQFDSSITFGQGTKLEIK	134
